# System: IGROV-ET
# test: Inhibition of cells growth by colorimetric (SRB) assay, IGROV-ET
# stated conditions: Homo sapiens, 48 h, read-out: IGROV-ET LC50, SRB assay, 48 hours exposure
Please respond with YES when measured CC50 is strictly beneath 20 µM, and with NO in all other cases.

Please review the entries below; each comes with its answer.
1) Cl.Nc1nccc(-c2c3c(Cl)ccnc3n3c(N)nccc23)n1 [Compound 83]    NO
2) CSc1nccc(-c2c3cccnc3n3c(N(C(C)=O)C(C)=O)nccc23)n1 [Compound 26]    YES
3) CSc1nccc(-c2c3c(O)ccnc3n3c(N)nccc23)n1.Cl [Compound 97]    NO

Quick check: CC50 of Nc1nccc(-c2c3cccnc3n3c(N)nccc23)n1 [Deoxyvariolin 4, deoxyvariolin B, reference compound] under 20 µM? NO

Entry CSc1nccc(-c2c3cccnc3n3c(NC(C)=O)nccc23)n1 [Compound 69] please NO

Repeat for the following molecule: CSc1nccc(-c2c3cccnc3n3c(N)nccc23)n1.Cl [Compound 68] NO

Moving on to the next molecule: CSc1nccc(-c2c3c(N)ccnc3n3c(N)nccc23)n1.Cl [Compound 93] YES

Subsequent entry: CSc1nccc(-c2c3c(Cl)ccnc3n3c(N)nccc23)n1.Cl [Compound 108] NO

Next molecule: CS(=O)(=O)c1nccc(-c2c3cccnc3n3c(N)nccc23)n1 [Compound 73] NO

Would you mind doing CSc1nccc(-c2c3cc4ccccc4nc3n3c(N)nccc23)n1 [Compound 18a] as well? NO

Same question, CSc1nccc(-c2c3ccc(C)nc3n3c(N)nccc23)n1 [Compound 43] this time NO

The measurements presented in this section are drawn from patent US7772241B2.
